Experiment: Cmax in healthy human at 900 mg, po administered as a single dose measured on day 5 post compound dose by HPLC
Assay type: ADME, organism-based
Set-up: dose 900 mg, route oral
Conditions: in vivo
measured_quantity: Cmax (ng/mL)
// note: answer is a bare numeric in ng/mL

Q. Sample CO[C@H]1/C=C/O[C@@]2(C)Oc3c(C)c(O)c4c(O)c(c(/C=N/N5CCN(C6CCCC6)CC5)c(O)c4c3C2=O)NC(=O)/C(C)=C\C=C\[C@H](C)[C@H](O)[C@@H](C)[C@@H](O)[C@@H](C)[C@H](OC(C)=O)[C@@H]1C — what was its Cmax?
A. 21900

###

Experiment: Apparent oral clearance in healthy human at 900 mg, po thrice weekly measured on day 19 post compound dose by HPLC
Format: ADME, organism-based
Conditions: in vivo
measured_quantity: CL/F

Q. Sample CO[C@H]1/C=C/O[C@@]2(C)Oc3c(C)c(O)c4c(O)c(c(/C=N/N5CCN(C6CCCC6)CC5)c(O)c4c3C2=O)NC(=O)/C(C)=C\C=C\[C@H](C)[C@H](O)[C@@H](C)[C@@H](O)[C@@H](C)[C@H](OC(C)=O)[C@@H]1C [RIFAPENTINE] — what was its CL/F?
A. 36.2 mL/min

###

Assay: Tmax in healthy human at 900 mg, po thrice weekly measured on day 19 post compound dose by HPLC
Assay type: ADME, organism-based
Settings: in vivo
measured_quantity: Tmax (h)
// note: answer is a bare numeric in h

Q. Sample CO[C@H]1/C=C/O[C@@]2(C)Oc3c(C)c(O)c4c(O)c(c(/C=N/N5CCN(C6CCCC6)CC5)c(O)c4c3C2=O)NC(=O)/C(C)=C\C=C\[C@H](C)[C@H](O)[C@@H](C)[C@@H](O)[C@@H](C)[C@H](OC(C)=O)[C@@H]1C [RIFAPENTINE] — what was its Tmax?
A. 4.77

###

Experiment: AUC (0 to 48 hrs) in healthy human at 900 mg, po administered as a single dose measured on day 5 post compound dose by HPLC
Format: ADME, organism-based
Set-up: time < 48 hr, dose 900 mg, route oral
Conditions: plasma
measured_quantity: AUC(0-t) at 48 h

Q. Sample CO[C@H]1/C=C/O[C@@]2(C)Oc3c(C)c(O)c4c(O)c(c(/C=N/N5CCN(C6CCCC6)CC5)c(O)c4c3C2=O)NC(=O)/C(C)=C\C=C\[C@H](C)[C@H](O)[C@@H](C)[C@@H](O)[C@@H](C)[C@H](OC(C)=O)[C@@H]1C [RIFAPENTINE] — what was its AUC(0-t) at 48 h?
A. 513 µg·h/mL

###

Test: Half life in healthy human at 900 mg, po administered as a single dose measured on day 5 post compound dose by HPLC
Type: ADME, organism-based
Conditions: in vivo
measured_quantity: half-life
Note: state the figure and append the unit.

Q. Sample CO[C@H]1/C=C/O[C@@]2(C)Oc3c(C)c(O)c4c(O)c(c(/C=N/N5CCN(C6CCCC6)CC5)c(O)c4c3C2=O)NC(=O)/C(C)=C\C=C\[C@H](C)[C@H](O)[C@@H](C)[C@@H](O)[C@@H](C)[C@H](OC(C)=O)[C@@H]1C [RIFAPENTINE] — what was its half-life?
A. 18.5 h

###

Experiment: Tmax in healthy human at 400 mg, po qd coadministered with 900 mg, po thrice weekly of rifapentine on day 5 post compound dose measured on day 19 post compound dose by HPLC
Type: ADME, organism-based
Conditions: in vivo
measured_quantity: Tmax
Note: state the figure and append the unit.

Q. Sample COc1c(N2C[C@@H]3CCCN[C@@H]3C2)c(F)cc2c(=O)c(C(=O)O)cn(C3CC3)c12 — what was its Tmax?
A. 2.6 h

Sourced from ChEMBL document CHEMBL1671633
